Origin of values: patent US7820646B2

# Tested on: parental cell line
# ASSAY OVERVIEW: Inhibition of cellular proliferation in tumor cell lines (CellTiter Glo), KB3.1
# Type: cell-based
# MEASUREMENT CONDITIONS: Homo sapiens, KB 3-1; KB3.1, 72 hours of continuous compound exposure; read-out: Cell Base Activity GI50 KB3.1
# Lookup of reported GI50 keyed by entry

For orientation, consider the following solved cases.
1) CN1C(=O)C(=O)N([C@@H](c2nc(-c3ccccc3)cn2Cc2ccccc2)C(C)(C)C)C[C@H]1CN | 0.1 to 1 µM
2) CC(C)(C)[C@H](c1nc(-c2ccccc2)cn1Cc1ccccc1)N1C[C@@H](CN)N(S(C)(=O)=O)CCC1=O | ≤ 0.1 µM

Now for another entry.
Input: GET /values?readout=GI50&item= "CC(C)(C)[C@H](c1nc(-c2ccccc2)cn1Cc1ccccc1)N1C[C@H](CN)NC(=O)C1=O"
Output: > 1 µM

----------
# Lookup of reported pIC50 keyed by entry
# TARGET SYSTEM: motor domain of human KSP (Eg 5, KNSL1) (Homo sapiens, UniProt P52732)
# Construct: KSP motor protein (i.e., the KSP motor domain); made in house
# Sequence (P52732 18-359 limits assumed): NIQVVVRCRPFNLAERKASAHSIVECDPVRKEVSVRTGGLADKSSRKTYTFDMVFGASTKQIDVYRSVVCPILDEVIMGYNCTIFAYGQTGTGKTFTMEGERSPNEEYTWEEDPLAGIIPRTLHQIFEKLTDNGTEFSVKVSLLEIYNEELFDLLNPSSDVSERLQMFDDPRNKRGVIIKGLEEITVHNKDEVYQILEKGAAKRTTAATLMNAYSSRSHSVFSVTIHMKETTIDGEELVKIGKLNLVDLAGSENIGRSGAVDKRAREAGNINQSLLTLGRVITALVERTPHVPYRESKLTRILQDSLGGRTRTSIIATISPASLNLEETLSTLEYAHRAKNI
# ASSAY OVERVIEW: Assay for determining KSP activity (microtubule-stimulated ATPase, Biomol Green)
# MEASUREMENT CONDITIONS: KSP motor domain 45 nM, microtubules 35 μg/mL, 1 hour at RT; read-out: Biochemical Activity IC50
pIC50: −log10 of the molar value.

For orientation, consider the following solved cases.
1) CC(C)[C@H](c1nc(-c2cccc(Cl)c2)cn1Cc1ccccc1)N1C[C@@H](CN)OCC1=O [Compound 8] | < 6.00
2) CC(C)(C)[C@H](c1nc(-c2ccccc2)cn1Cc1ccccc1)N1C[C@H](CN)COC1=O [Compound 4] | 6.00 to 7.00
3) CC(C)(C)[C@H](c1nc(-c2cccc(F)c2)cn1Cc1ccccc1)N1C[C@@H](CN)COCC1=O [Compound 27] | ≥ 7.00

Now for another entry.
Input: GET /values?readout=pIC50&item= CC(C)(C)[C@H](c1nc(-c2ccccc2)cn1Cc1ccccc1)N1C[C@H](CCN)OCC1=O [Compound 11]
Output: 6.00 to 7.00

----------
# Test system: parental cell line
# ASSAY OVERVIEW: Inhibition of cellular proliferation in tumor cell lines (CellTiter Glo), KB3.1
# Assay type: cell-based
# MEASUREMENT CONDITIONS: Homo sapiens, KB 3-1; KB3.1, 72 hours of continuous compound exposure; read-out: Cell Base Activity GI50 KB3.1
# Lookup of reported GI50 keyed by entry

For orientation, consider the following solved cases.
1. CC(C)(C)[C@H](c1nc(-c2ccccc2)cn1Cc1ccccc1)N1C[C@@H](CN)NC(=O)C1=O | 100 to 1000 nM
2. C[C@@H]1O[C@H](CN)CN([C@@H](c2nc(-c3cccc(F)c3)cn2Cc2ccccc2)C(C)(C)C)C1=O | > 1000 nM

Now for another entry.
Input: GET /values?readout=GI50&item= "CC(C)(C)[C@H](c1nc(-c2cccc(F)c2)cn1Cc1cc(F)cc(F)c1)N1C[C@@H](CN)COCC1=O"
Output: 100 to 1000 nM
